- Read-out: Fatty Acid-Binding Protein 1 (FABP1), FABP1 (gene 2168)
- assay info: LTEA_HepaRG_FABP1: Life Technologies and Expression Analysis (LTEA) Assay for Fatty Acid-Binding Protein 1 (FABP1) using HepaRG (AID 2283494)
- measurement parameters: mRNA level, 48 h; actives raise or lower the signal
Calls of active or inactive are those of the source. How the source made its calls: active means hit-call score of the fitted dose curve at least 0.9, where 1 is the maximum; inactive means score below 0.9.
Labels: active, inactive

| item smiles | discrete label |
| --- | --- |
| O=C(c1ccc(OCCN2CCCCC2)cc1)c1c(-c2ccc(O)cc2)sc2cc(O)ccc12 | active |
| C#C[C@]1(O)CC[C@H]2[C@@H]3CCc4cc(O)ccc4[C@H]3CC[C@@]21C | inactive |
| C=C(C)C(N)=O | inactive |
| COC(=O)c1ccc(C(=O)OC)cc1 | inactive |

----------
- assay system: Aryl hydrocarbon receptor (Homo sapiens)
- assay info: ATG_Ahr_CIS: Attagene CIS-FACTORIAL HepG2 Assay for human Aryl Hydrocarbon Receptor (Ahr) (AID 2282930)
- measurement parameters: HepG2 AhR cis-factorial reporter transcription; actives raise or lower the signal
Active and inactive are the calls of the source. The calls were made as follows: active = hit-call score of the fitted dose curve at least 0.9, where 1 is the maximum; inactive = score below 0.9.

| compound | AC50 |
| --- | --- |
| C=C1CC[C@H]2O[C@]2(C)CC[C@@H]2[C@@H]1CC2(C)C | inactive |
| C=C1CC/C=C(\C)CC[C@@H]2[C@@H]1CC2(C)C | inactive |
| COC(=O)C(C)Oc1ccc(Oc2ncc(C(F)(F)F)cc2Cl)cc1 (stereo not drawn) | 3.09 µM (active) |
| COc1ccc(N)c(C)c1 | inactive |
| CCCCCCCCCCCCOCCOS(=O)(=O)O | inactive |
| CC(CO)(CO)[N+](=O)[O-] | inactive |
| O=Cc1ccccc1O | 48.5 µM (active) |
| CCNC(=S)NCC | inactive |
| NC(N)=NC(N)=NCCc1ccccc1 | inactive |
| NC(=O)c1cnccn1 | inactive |
| CCc1cccc(O)c1 | inactive |
| CCC(C)(CCCC(C)C)OC(C)=O (stereo not drawn) | 71.4 µM (active) |
| C=CCOCC(O)CO (stereo not drawn) | inactive |
| [Cu+] | 15 µM (active) |
| CCCC1CCC(=O)CC1 | 44.4 µM (active) |
| C=C/C(C)=C/C/C=C(\C)CCC=C(C)C | inactive |
| Cc1cccc(O)c1 | inactive |
| CCOC(=O)COC(=O)c1ccccc1C(=O)OCC | inactive |
| Cc1cc(O)c(C)c(C)c1O | 17.8 µM (active) |
| OC[C@@H](O)[C@H](O)[C@@H](O)[C@@H](O)CO | inactive |
| CCC(C)(C)C1CCC(OC)CC1 (stereo not drawn) | inactive |
| CCOc1ccc(NC(C)=O)cc1 | inactive |
| CCCC[N+](C)(CCCC)CCCC | inactive |
| O=[N+]([O-])c1cc(N(CCO)CCO)ccc1NCCO | inactive |
| O=C(OCc1ccccc1)c1ccccc1O | 61.9 µM (active) |
| O=C1CCCCCCCCCCCC(=O)OCCO1 | inactive |
| NC(=O)c1c(Cl)cccc1Cl | 55.4 µM (active) |
| CCOCC(C)O (stereo not drawn) | inactive |

----------
- Read-out: CYP3A5 (gene 1577)
- assay info: LTEA_HepaRG_CYP3A5: Life Technologies and Expression Analysis (LTEA) Assay for CYP3A5 using HepaRG (AID 2283493)
- measurement parameters: mRNA level, 48 h; actives raise or lower the signal
The source made the active and inactive calls. Rule for the calls: active = hit-call score of the fitted dose curve at least 0.9, where 1 is the maximum; inactive = score below 0.9.
Labels: Yes (active), No (inactive)

| item smiles | discrete label |
| --- | --- |
| CCCCOCCOCCO | No |
| C[C@]12CC[C@@H]3c4ccc(O)cc4CC[C@H]3[C@@H]1CC[C@@H]2O | Yes |
| C#C[C@]1(O)CC[C@H]2[C@@H]3CCc4cc(O)ccc4[C@H]3CC[C@@]21C | No |
| C=C(C)C(N)=O | No |
| O=C(c1ccc(OCCN2CCCCC2)cc1)c1c(-c2ccc(O)cc2)sc2cc(O)ccc12 | Yes |
